# System: BT-549 breast
# PROTOCOL_TEXT: NCI tumour cell line growth inhibition, 48 h; in the data active = GI50 below about 0.43 µM; inactive = the rest
The reply should name one outcome from 1 (yes) = active, 0 (no) = inactive

Solved cases (10 shown):
CN(C)CCCn1c(=O)c2ccccc2c2ccccc21    0 (no)
C/C(=C\c1ccc2ccccc2c1)[N+](=O)[O-]    0 (no)
O=C(Nc1ccc(OCc2nnc(-c3ccc(Cl)cc3)o2)c(F)c1)Nc1ccc(Cl)c(C(F)(F)F)c1    0 (no)
O=S(=O)(Nc1cc(Sc2cccc3cccnc23)c(O)c2ccccc12)c1ccc(F)cc1    0 (no)
CCOC(=O)C1=C(C)N(c2ccc(Cl)cc2)[C@]2(C#N)C(O)=C(Cl)C(Cl)=C(O)[C@]12C#N    0 (no)
CCCCCCCCCCCCCCCCCC[n+]1ccc2c(C)c3c(c(C)c2c1)c1cc(O)ccc1n3CC    0 (no)
COc1cc(N2C(=O)[C@H](O)C2c2ccc(SC)cc2)cc(OC)c1OC (some centres not stated)    1 (yes)
O=C(NN1C(=O)CSC12CCCCC2)c1[nH]c2ccc(Br)cc2c1-c1ccccc1    0 (no)
C[C@@H]1CN(Cc2ccc(F)cc2)[C@@H](C)CN1C(=O)c1cc2c(C(=O)C(=O)N(C)C)cn(C)c2cc1Cl    0 (no)
COc1ccc(-c2nc(Nc3cc(C)[nH]n3)c3ccccc3n2)cc1    0 (no)

stdin: Per the records of this test, what outcome belongs to CC(C)NCCCn1c(Sc2cc3c(cc2I)OCO3)nc2c(N)ncnc21 ?
stdout: 0 (no)

stdin: Fill in: this test's call for O=C1CCC(N2Cc3cc(CNC(=O)C(F)(F)c4ccc(Cl)cc4)ccc3C2=O)C(=O)N1 (configuration not stated) is ___
stdout: 1 (yes)
